Field: MIC. Provide a value for each of the compounds that follow.
Test system: K. pneumoniae MP-648
ASSAY NOTES: MIC determination by CLSI broth dilution, K. pneumoniae MP-648
Type: cell-based
MEASUREMENT PARAMETERS: Klebsiella pneumoniae, MP648, CLSI broth dilution; strain MP-648

The following compounds have reported results that may help.
[[record]]
compound = "CO[C@]1(C)C[C@@H](C)CN(C)[C@@H]([C@H](O)C2CCN(CC3CC3)CC2)COC(=O)C(C)(C)C(=O)[C@H](C)[C@H]1O[C@@H]1O[C@H](C)C[C@H](N(C)C)[C@H]1O"
measured = "4 to 32 µg/mL"

[[record]]
compound = "CO[C@]1(C)C[C@@H](C)CN(C)[C@H](CC2CN(CC(C)C)C2)COC(=O)C(C)(C)C(=O)[C@H](C)[C@H]1O[C@@H]1O[C@H](C)C[C@H](N(C)C)[C@H]1O"
measured = "> 32 µg/mL"

[[record]]
compound = "CO[C@]1(C)C[C@@H](C)CN(C)[C@H](CC2CCN(C=O)CC2)COC(=O)C(C)(C)C(=O)[C@H](C)[C@H]1O[C@@H]1O[C@H](C)C[C@H](N(C)C)[C@H]1O"
measured = "> 32 µg/mL"

[[record]]
compound = "CCC(CCNCC(C)C)C[C@@H]1COC(=O)C(C)(C)C(=O)[C@H](C)[C@@H](O[C@@H]2O[C@H](C)C[C@H](N(C)C)[C@H]2O)[C@](C)(OC)C[C@@H](C)CN1C (stereo partly shown)"
measured = "< 4 µg/mL"

[[record]]
compound = "CCN1C[C@H](C)C[C@@](C)(OC)[C@H](O[C@@H]2O[C@H](C)C[C@H](N(C)C)[C@H]2O)[C@@H](C)C(=O)C(C)(C)C(=O)OC[C@H]1C=C1CCN(Cc2ccccc2)CC1"
measured = "4 to 32 µg/mL"


Working through the 2 compounds below one at a time, give MIC for each.
1. CO[C@]1(C)C[C@@H](C)CN(C)[C@H](CC2CCN(C3CCCC3)CC2)COC(=O)C(C)(C)C(=O)[C@H](C)[C@H]1O[C@@H]1O[C@H](C)C[C@H](N(C)C)[C@H]1O
2. CCCCCCCN1CCC(C[C@@H]2COC(=O)C(C)(C)C(=O)[C@H](C)[C@@H](O[C@@H]3O[C@H](C)C[C@H](N(C)C)[C@H]3O)[C@](C)(OC)C[C@@H](C)CN2C)CC1

Result:
1: < 4 µg/mL; 2: < 4 µg/mL

###

System: K. pneumoniae MP-648
ASSAY NOTES: MIC determination by CLSI broth dilution, K. pneumoniae MP-648
Type: cell-based
MEASUREMENT PARAMETERS: Klebsiella pneumoniae, MP648, CLSI broth dilution; strain MP-648
Field: MIC. Provide a value for each of the compounds that follow.

[[record]]
molecule = "CCN1C[C@H](C)C[C@@](C)(OC)[C@H](O[C@@H]2O[C@H](C)C[C@H](N(C)C)[C@H]2O)[C@@H](C)C(=O)C(C)(C)C(=O)OC[C@@H]1CN1CCN(C)CC1"
property_label = "MIC"
measured = "4 to 32 µg/mL"

[[record]]
molecule = "CO[C@]1(C)C[C@@H](C)CN(C)[C@@H](CCCN(C)C2CC2)COC(=O)C(C)(C)C(=O)[C@H](C)[C@H]1O[C@@H]1O[C@H](C)C[C@H](N(C)C)[C@H]1O"
property_label = "MIC"
measured = "4 to 32 µg/mL"

[[record]]
molecule = "CCCN1CCC(CC[C@@H]2COC(=O)C(C)(C)C(=O)[C@H](C)[C@@H](O[C@@H]3O[C@H](C)C[C@H](N(C)C)[C@H]3O)[C@](C)(OC)C[C@@H](C)CN2C)CC1"
property_label = "MIC"
measured = "> 32 µg/mL"

[[record]]
molecule = "CCCN1C[C@H](C)C[C@@](C)(OC)[C@H](O[C@@H]2O[C@H](C)C[C@H](N(C)C)[C@H]2O)[C@@H](C)C(=O)C(C)(C)C(=O)OC[C@@H]1CCCN1Cc2ccccc2C1"
property_label = "MIC"
measured = "< 4 µg/mL"


# MIC of `CO[C@]1(C)C[C@@H](C)CN(C)[C@@H](CCCN2CCC[C@H]2C)COC(=O)C(C)(C)C(=O)[C@H](C)[C@H]1O[C@@H]1O[C@H](C)C[C@H](N(C)C)[C@H]1O` = < 4 µg/mL

###

Test system: P. aeruginosa MP-3
ASSAY NOTES: MIC determination by CLSI broth dilution, P. aeruginosa MP-3
Type: cell-based
MEASUREMENT PARAMETERS: Pseudomonas aeruginosa, MP3, strain MP-3
PROPERTY LABEL: MIC

The following molecules have reported results that may help.
[[record]]
molecule = "CCCN1C[C@H](C)C[C@@](C)(OC)[C@H](O[C@@H]2O[C@H](C)C[C@H](N(C)C)[C@H]2O)[C@@H](C)C(=O)C(C)(C)C(=O)OC[C@@H]1CCCN1CCCC1"
experimental_target = "P. aeruginosa MP-3"
measured = "> 32 µg/mL"

[[record]]
molecule = "CO[C@]1(C)C[C@@H](C)CN(C)[C@@H](CCCN2CCC[C@@H]2C)COC(=O)C(C)(C)C(=O)[C@H](C)[C@H]1O[C@@H]1O[C@H](C)C[C@H](N(C)C)[C@H]1O"
experimental_target = "P. aeruginosa MP-3"
measured = "> 32 µg/mL"

[[record]]
molecule = "CO[C@]1(C)C[C@@H](C)CN(C)[C@@H](CN2CCN(C(C)C)CC2)COC(=O)C(C)(C)C(=O)[C@H](C)[C@H]1O[C@@H]1O[C@H](C)C[C@H](N(C)C)[C@H]1O"
experimental_target = "P. aeruginosa MP-3"
measured = "> 32 µg/mL"

[[record]]
molecule = "CO[C@]1(C)C[C@@H](C)CN(C)[C@@H](CC2CCN(CC[C@@H](C)CCC=C(C)C)CC2)COC(=O)C(C)(C)C(=O)[C@H](C)[C@H]1O[C@@H]1O[C@H](C)C[C@H](N(C)C)[C@H]1O"
experimental_target = "P. aeruginosa MP-3"
measured = "> 32 µg/mL"


Field: next molecule
# MIC of `CO[C@]1(C)C[C@@H](C)CN(C)[C@H](CCCN2CCCCC2)COC(=O)C(C)(C)C(=O)[C@H](C)[C@H]1O[C@@H]1O[C@H](C)C[C@H](N(C)C)[C@H]1O` = > 32 µg/mL

###

Field: MIC. Provide a value for each of the molecules that follow.
System: K. pneumoniae MP-546
ASSAY NOTES: MIC determination by CLSI broth dilution, K. pneumoniae MP-546
Format: cell-based
MEASUREMENT PARAMETERS: Klebsiella pneumoniae, MP546, CLSI broth dilution; strain MP-546

The following molecules have reported results that may help.
[[record]]
molecule = "CO[C@]1(C)C[C@@H](C)CN(C)[C@H]([C@H](O)CCN2CCCC2)COC(=O)C(C)(C)C(=O)[C@H](C)[C@H]1O[C@@H]1O[C@H](C)C[C@H](N(C)C)[C@H]1O"
experimental_target = "K. pneumoniae MP-546"
measured = "< 4 µg/mL"

[[record]]
molecule = "CCCN1CCC(C[C@H]2COC(=O)C(C)(C)C(=O)[C@H](C)[C@@H](O[C@@H]3O[C@H](C)C[C@H](N(C)C)[C@H]3O)[C@](C)(OC)C[C@@H](C)CN2C)CC1"
experimental_target = "K. pneumoniae MP-546"
measured = "4 to 32 µg/mL"

[[record]]
molecule = "CCN1C[C@H](C)C[C@@](C)(OC)[C@H](O[C@@H]2O[C@H](C)C[C@H](N(C)C)[C@H]2O)[C@@H](C)C(=O)C(C)(C)C(=O)OC[C@@H]1CCCN(C)C(C)C"
experimental_target = "K. pneumoniae MP-546"
measured = "< 4 µg/mL"


Working through the 4 molecules below one at a time, give MIC for each.
1. CO[C@]1(C)C[C@@H](C)CN(C)[C@@H](CCCN2CCC[C@H]2C)COC(=O)C(C)(C)C(=O)[C@H](C)[C@H]1O[C@@H]1O[C@H](C)C[C@H](N(C)C)[C@H]1O
2. CO[C@]1(C)C[C@@H](C)CN(C)[C@H](CC2=CCN(CC3CC3)CC2)COC(=O)C(C)(C)C(=O)[C@H](C)[C@H]1O[C@@H]1O[C@H](C)C[C@H](N(C)C)[C@H]1O
3. CO[C@]1(C)C[C@@H](C)CN(C)[C@H](CC2CCN(CC(C)(C)C)CC2)[C@@H](C)OC(=O)C(C)(C)C(=O)[C@H](C)[C@H]1O[C@@H]1O[C@H](C)C[C@H](N(C)C)[C@H]1O
4. CNC[C@H]1COC(=O)C(C)(C)C(=O)[C@H](C)[C@@H](O[C@@H]2O[C@H](C)C[C@H](N(C)C)[C@H]2O)[C@](C)(OC)C[C@@H](C)CN1

Result:
< 4 µg/mL
4 to 32 µg/mL
4 to 32 µg/mL
> 32 µg/mL

Working through the 3 molecules below one at a time, give MIC for each.
1. CO[C@]1(C)C[C@@H](C)CN(C)[C@@H](C(=O)N2CCN(C(C)C)CC2)[C@H](C)OC(=O)C(C)(C)C(=O)[C@H](C)[C@H]1O[C@@H]1O[C@H](C)C[C@H](N(C)C)[C@H]1O
2. CO[C@]1(C)C[C@@H](C)CN(C)[C@@H](CCCN2CCC[C@@H]2C)COC(=O)C(C)(C)C(=O)[C@H](C)[C@H]1O[C@@H]1O[C@H](C)C[C@H](N(C)C)[C@H]1O
3. CCCCCCCN1CCC(C[C@@H]2COC(=O)[C@@](C)(CCC)C(=O)[C@H](C)[C@@H](O[C@@H]3O[C@H](C)C[C@H](N(C)C)[C@H]3O)[C@](C)(OC)C[C@@H](C)CN2C)CC1

Result:
1: > 32 µg/mL; 2: < 4 µg/mL; 3: 4 to 32 µg/mL

This collection of values is drawn from patent US12552825B2.
